Test system: UACC-62 melanoma
Experiment: NCI-60 one-dose screen, 48 h
Details: 10 µM unless noted
The panel holds about 83,000 compounds, 20% with a hit somewhere; the sample as a whole holds those more often. The source made the active and inactive calls. How the source made its calls: active means growth percent below 10; inactive means the rest.
Labels: active, inactive

{"COMPOUND": "COc1cc(/C=C2\\CN(S(=O)(=O)c3ccccc3)C/C(=C\\c3cc(CN4CCCC4)c(O)c(OC)c3)C2=O)cc(CN2CCCC2)c1O", "LABEL_VALUE": "active"}
{"COMPOUND": "N[C@@H](CC/[N+]([O-])=N/O)C(=O)O", "LABEL_VALUE": "inactive"}
{"COMPOUND": "CCC(C)(C)C(=O)O[C@H]1C[C@@H](C)C=C2C=C[C@H](C)[C@H](CC[C@@H]3CC=CC(=O)O3)[C@H]21", "LABEL_VALUE": "inactive"}
{"COMPOUND": "C=C(C)CCC(C)N1CCC(N2CCC(C(=O)NCCc3ccccc3)CC2)CC1 (stereo unspecified)", "LABEL_VALUE": "inactive"}
{"COMPOUND": "Cc1cccc(NC(=O)c2sc3nc4c(cc3c2N)CCCC4)c1C", "LABEL_VALUE": "inactive"}
{"COMPOUND": "N#Cc1c(N)nc2c(c1N)C(c1ccc(F)cc1)c1ccc(N)cc1O2 (stereo unspecified)", "LABEL_VALUE": "inactive"}
{"COMPOUND": "O=c1oc2ccc(Br)cc2c(=O)n1-c1ccc(I)cc1F", "LABEL_VALUE": "active"}
{"COMPOUND": "O=C1Nc2ccccc2/C1=C/c1ccc[nH]1", "LABEL_VALUE": "inactive"}
{"COMPOUND": "COc1ccc(-n2c(C(O)c3ccccc3)n[nH]c2=S)cc1 (stereo unspecified)", "LABEL_VALUE": "inactive"}
{"COMPOUND": "O=C(COc1cc(O)c2c(=O)cc(-c3ccccc3)oc2c1)Nc1ccccc1C(F)(F)F", "LABEL_VALUE": "inactive"}
{"COMPOUND": "FC(F)(F)c1cccc(CNC2CCN(CCc3ccccc3)CC2)c1", "LABEL_VALUE": "inactive"}
{"COMPOUND": "Oc1[nH]c2ccccc2c1N=Nc1nnc2n1N=C(c1ccccc1)CS2", "LABEL_VALUE": "inactive"}
{"COMPOUND": "Cc1sc2ncn(CC(=O)Nc3ccc(S(N)(=O)=O)cc3)c(=O)c2c1C", "LABEL_VALUE": "inactive"}
{"COMPOUND": "CN1CCN(c2nc(Nc3ccc(O)cc3)nc3ccccc23)CC1", "LABEL_VALUE": "inactive"}
{"COMPOUND": "COc1ccc(CCN2C(=O)CCSC2=S)cc1OC", "LABEL_VALUE": "inactive"}
{"COMPOUND": "COc1ccc(Cn2c(Br)c3c(c2-c2cc(OC)c(OC)c(OC)c2)CCc2sc(NC(C)=O)nc2-3)cc1", "LABEL_VALUE": "inactive"}
{"COMPOUND": "CN(C)c1ccc(N=Cc2ccc(N3CCOCC3)cc2)cc1", "LABEL_VALUE": "inactive"}
{"COMPOUND": "Nc1nc2c(ncn2[C@@H]2O[C@H](CS)[C@@H](O)[C@H]2O)c(=O)[nH]1", "LABEL_VALUE": "inactive"}
{"COMPOUND": "CC(C)C[C@H](C(=O)N[C@H](C(N)=O)C(C)C)N1CC=CCN(OCc2ccccc2)S1(=O)=O", "LABEL_VALUE": "inactive"}
{"COMPOUND": "CCOc1ccc(-c2nonc2NC(=O)c2cccc(C)c2)cc1OCC", "LABEL_VALUE": "inactive"}
{"COMPOUND": "CC(C)[C@H](NC(=O)Cn1cc(C(=O)O)nn1)C(=O)O", "LABEL_VALUE": "inactive"}
